These measurements were taken from paper PMC12616683.

Measured Peptide signal (feature intensity) in the small intestine, 30 min by item
# assay.text: FBMN analysis of short peptides in small intestine contents and serum after oral DHG
# measurement.setup: small intestine contents, 30 min after oral DHG, C57 mice; FBMN feature intensity, peptides smaller than 690 Da
Peptide text beside a SMILES is read from it.
result.type: Peptide signal (feature intensity) in the small intestine, 30 min

INSERT INTO measurements (molecule, value_measured) VALUES
  ('O=C1CNC(=O)C(Cc2ccccc2)N1 [cyclo(glycinyl-L-phenylalanine)]', '1.21E+06'),
  ('CC(C)[C@H](N)C(=O)N[C@@H](Cc1c[nH]c2ccccc12)C(=O)O [Val-Trp] (H-Val-Trp-OH)', '4.66E+05'),
  ('CC[C@H](C)[C@H](N)C(=O)N[C@H](C(=O)N[C@@H](CCCCN)C(=O)O)[C@@H](C)CC [Ile-Ile-Lys] (H-Ile-Ile-Lys-OH)', '3.33E+05'),
  ('N[C@@H](Cc1ccccc1)C(=O)N[C@@H](CCC(=O)O)C(=O)O [Phe-Glu] (H-Phe-Glu-OH)', '1.31E+07'),
  ('CC(C)[C@H](NC(=O)[C@@H]1CCC(=O)N1)C(=O)O [PyroGlu-Val] (HELM PEPTIDE1{[Glp].V}$$$$V2.0)', '0.00E+00'),
  ('C[C@@H](O)[C@H](NC(=O)[C@@H](N)Cc1ccccc1)C(=O)O [Phe-Thr]', '4.05E+04'),
  ('CCC(C)C(N)C(=O)NC(CCCCN)C(=O)O (stereo not drawn) [Ile-Lys] (H-Ile-Lys-OH; configuration not given here)', '0.00E+00'),
  ('N[C@@H](Cc1cnc[nH]1)C(=O)N[C@@H](Cc1c[nH]c2ccccc12)C(=O)O [His-Trp]', '1.94E+06'),
  ('CC(C)CC(NC(=O)C(N)Cc1ccc(O)cc1)C(=O)O (stereo not drawn) [Tyr-Leu] (H-Tyr-Leu-OH; configuration not given here)', '2.28E+06'),
  ('CCC(C)C(N)C(=O)NC(C(=O)O)C(C)O (stereo not drawn) [Ile-Thr] (H-Ile-Thr-OH; configuration not given here)', '6.56E+06'),
  ('CC[C@H](C)[C@H](NC(=O)[C@@H](N)Cc1ccccc1)C(=O)N[C@@H](CCCCN)C(=O)O [Phe-Ile-Lys] (H-Phe-Ile-Lys-OH)', '0.00E+00');

---

# assay.text: Serum pharmacokinetics of CDPs after oral administration of DHG (targeted LC-MS, noncompartmental analysis)
# measurement.setup: serum, mice, oral DHG 1000 mg/kg
Measured C max values are reported for all entries that follow.
result.type: C max

INSERT INTO results (compound, value_measured) VALUES
  ('CC(C)[C@@H]1NC(=O)[C@@H]2CCCN2C1=O', '78.4401 ng/mL'),
  ('CC1NC(=O)C2CC(O)CN2C1=O (stereo not shown)', '400.1572 ng/mL'),
  ('O=C1[C@@H]2C[C@@H](O)CN2C(=O)[C@@H]2CCCN12', '408.1371 ng/mL'),
  ('CC(C)CC1NC(=O)C2CCCN2C1=O (stereo not shown)', '81.2502 ng/mL');

---

# assay.text: FBMN analysis of short peptides in small intestine contents and serum after oral DHG
# measurement.setup: serum, time points 0.5-4 h after oral DHG
result.type: time detected in serum (FBMN)

INSERT INTO assay_data (compound, value_measured) VALUES
  ('CC(C)CC1NC(=O)C2CC(O)CN2C1=O (centres unmarked) [cyclo(Hyp-Leu)]', '0.5 to 4 h'),
  ('CC(C)CC1NC(=O)C2CCCN2C1=O (centres unmarked) [cyclo(Pro-Leu)]', '0.5 to 4 h'),
  ('N[C@@H](CCC(=O)O)C(=O)N[C@@H](Cc1ccccc1)C(=O)O [Glu-Phe]', '≥ 4 h'),
  ('O=C1N[C@@H](Cc2ccccc2)C(=O)N2C[C@@H](O)C[C@@H]12 [cyclo(Phe-Hyp)]', '0.5 to 4 h'),
  ('CC(C)C[C@@H]1NC(=O)[C@H](Cc2ccccc2)NC1=O [cyclo(Leu-Phe)]', '0.5 to 4 h');
